Collected Dose.FC.CTG values appear next to each entry.
# System: ENR+CD organoids
# PROTOCOL DETAILS: Primary screen: ATP (CellTiter-Glo 3D, CTG) cell number/viability, 2.5-D 384-well ENR+CD organoids;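 note: compounds given at plating and again on day 3 over a 6-day differentiation from ENR+CV stem-cell-enriched precursors, ATP measured on day 6, plate median as control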
# CONDITION DESCRIPTION: primary screen, dose 0.40 uM

# COMPOUND, Dose.FC.CTG
records = [
    ("CNCc1ccc(-c2cc(-c3nc(-c4ccc(S(=O)(=O)C(C)C)cc4)cnc3N)on2)cc1", "−0.287 log2 fold change"),
    ("C[C@@H](O[C@H]1OCCN(Cc2n[nH]c(=O)[nH]2)[C@H]1c1ccc(F)cc1)c1cc(C(F)(F)F)cc(C(F)(F)F)c1 [Aprepitant]", "0.403 log2 fold change"),
]

Dose.FC.CTG reading for COc1cc(Nc2c(C#N)cnc3cc(OCCCN4CCN(C)CC4)c(OC)cc23)c(Cl)cc1Cl [Bosutinib (SKI-606), Bosutinib, reference compound] : 0.302 log2 fold change
